The entries below come with measured inhibition values attached.
# SYSTEM_NAME: Cathepsin B (Homo sapiens) (UniProt P07858)
# PROTOCOL_DETAILS: cathepsin B inhibitors from pooled compounds, primary screen, biochemical, compound mixtures, AMC fluorescence (AID 488);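 also: 0% = enzyme without compound and 100% = no enzyme blank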
# MEASUREMENT_SETUP: Purified cathepsin B, AMC dipeptide fluorescence, active compounds read high,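 ten-compound pools at 5 µM per compound and 50 µM total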
Among all 62,000 compounds or so, about 40 (0.06%) were called active. The sample holds actives, similar compounds and a random draw of the others, so the mix is not that of the screen.
REPORTED_ENDPOINT: inhibition (%)

INSERT INTO measurements (molecule, reported_endpoint, reported_measurement) VALUES
  ('COc1ccc(C(=O)Nc2ccc3c(c2)OCO3)cc1OC', 'inhibition', 1.18),
  ('Cc1ccc2cccc(S(=O)(=O)N3CCN(c4ccccc4F)CC3)c2n1', 'inhibition', 2.15),
  ('CCCOc1ccc(NC(=O)C2CCCNC2=O)cc1 (stereo unspecified)', 'inhibition', 0.055),
  ('Cc1ccc(C(C(=O)NC2CCCC2)N(Cc2ccco2)C(=O)CCC(=O)Nc2ccccn2)cc1 (stereo unspecified)', 'inhibition', 3.21),
  ('Cc1ccc(C(=O)NCC(=O)O)cc1S(=O)(=O)N1CCCCC1', 'inhibition', 1.96),
  ('CC1CCCN(Cc2nc3c(c(=O)n(C)c(=O)n3C)n2Cc2cccc3ccccc23)C1 (stereo unspecified)', 'inhibition', 1.14),
  ('O=C1CC(c2ccccc2)C(=O)N1c1cccc(O)c1 (stereo unspecified)', 'inhibition', -1.1),
  ('CC(C)c1ccc(NS(=O)(=O)c2cn(C)c(=O)n(C)c2=O)cc1', 'inhibition', 3.38),
  ('CCOC(=O)c1c(CN2CCOCC2)n(-c2ccccc2)c2ccc(O)cc12', 'inhibition', 4.31),
  ('O=C(NCc1ccccn1)c1c(O)c2c([nH]c1=O)CCCC2', 'inhibition', 4.33),
  ('Cc1cc(Nc2ccc(Br)cc2F)n2ncnc2n1', 'inhibition', -2.18);
